Where do the numbers come from? From paper PMC4052546.

- TEST NAME: Pharmacokinetics of AS and DHA in rat plasma after single and multiple intravenous AS injections (automated blood sampler, LC-MS/MS);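 further: blood drawn through a jugular vein catheter by an automated sampling system, plasma drug levels measured by LC-MS/MS with positive electrospray ionization against standard curves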
- Assay type: in vivo, Sprague-Dawley rats
- MEASUREMENT CONTEXT: male, Sprague-Dawley, rat, plasma, iv, 20 mg/kg, WRAIR formulation (AS/0.3M PBS Buffer), 20 mg/kg i.v. daily for 3 days, male rats, Period 2, Day 1
QUANTITY: Cmax (ng/mL)

Data point: C[C@H]1[C@@H](O)O[C@@H]2O[C@@]3(C)CC[C@H]4[C@H](C)CC[C@@H]1[C@@]24OO3 [DHA, dihydroartemisinin] ; Cmax = 3520

Data point: C[C@H]1[C@H](OC(=O)CCC(=O)O)O[C@@H]2O[C@@]3(C)CC[C@H]4[C@H](C)CC[C@@H]1[C@@]24OO3 [AS, artesunate] ; Cmax = 4210
